Quick reference: T/C of the listed items.
# Tested on: CD2F1 mice, L1210 leukemia ip, survival T/C
# PROTOCOL SUMMARY: NCI In Vivo Anticancer Drug Screen. Data for tumor model L1210 Leukemia (intraperitoneal) in CD2F1 (CDF1) mice
# MEASUREMENT PARAMETERS: endpoint: mean survival time; dose: 25.0 mg/kg/injection; schedule: Q01DX009 (ip); vehicle: Klucel (hydroxypropylcellulose) (HPC); higher = longer survival
Toxic doses and inconclusive results are not listed.
ATTRIBUTE MEASURED: T/C

>>> df
                                   molecule                            assayed_system    value_reported
0           Oc1ccc(/C=N/NC(=S)NN2CCOCC2)nc1  CD2F1 mice, L1210 leukemia ip, survival T/C  121 % of control
1  COc1cccc(C(O)c2ccncc2C)c1OC (stereo not given)  CD2F1 mice, L1210 leukemia ip, survival T/C   97 % of control
2  CC(C)CC(=O)NC(C(=O)NC(C(=O)NC(CC(C)C)C(O)CC(=O)NC(C)C(=O)NC(CC(C)C)C(O)CC(=O)O)C(C)C)C(C)C (stereo not given)  CD2F1 mice, L1210 leukemia ip, survival T/C  100 % of control
3               CCCCCCCCCc1nc(N)nc(NCCCC)n1  CD2F1 mice, L1210 leukemia ip, survival T/C  101 % of control
4             Nc1ncnc2nc(SCc3ccccc3)[nH]c12  CD2F1 mice, L1210 leukemia ip, survival T/C  104 % of control

The measurements presented in this section are drawn from PubChem BioAssay AID256.
